# assay info: qHTS assay to identify small molecule antagonists of the peroxisome proliferator-activated receptor gamma (PPARg) signaling pathway - cell viability counter screen (AID 743194); further: nearly all actives have a fitted effect of over 55% in size
# condition description: PPARg-bla HEK293H viability, CellTiter-Glo luminescence, 17 h; co-treated with 50 nM rosiglitazone; series mostly up to 62.6 µM
# Text: U.S. Tox21 Program National Center for Advancing Translational Sciences [NCATS] NIH Chemical Genomics Center [NCGC] U.S. Environmental Protection Agency [EPA] National Institutes of Environmental Health Sciences [NIEHS] National Toxicology Program [NTP] U.S. Food and Drug Administration [FDA] […]
Inconclusive results are not listed. Calls of active or inactive are those of the source. The call rests on the fitted dose curve; in most records, active means well fitted cell-killing curve with a large enough effect in the repeat runs; inconclusive means weak or mixed curves, or effect the other way; inactive means no such curve, though single readings can be large or run the other way.

molecule	outcome
C=C(Cl)Cl	inactive
C=CC(=O)NC(C)(C)CC(C)=O	inactive
O=C(Cl)OCCOCCOC(=O)Cl	inactive
CCCC[P+](CC)(CCCC)CCCC (tested in a mixture with another compound)	inactive
CCC[N+](CCC)(CCC)CCC	inactive
CCc1cnc(C2=NC(C)(C(C)C)C(=O)N2)c(C(=O)O)c1 (configuration not stated)	inactive
CC(C)[C@@H](C(=O)O[C@@H](C#N)c1cccc(Oc2ccccc2)c1)c1ccc(Cl)cc1	inactive
